# assay.system: Full-length human MNK2 (Homo sapiens, UniProt Q9HBH9, T379D)
# Construct: GST (N); purchased Carna Biosciences 02-146; host or cells: baculovirus expression system
# Sequence (Q9HBH9 whole entry T379D): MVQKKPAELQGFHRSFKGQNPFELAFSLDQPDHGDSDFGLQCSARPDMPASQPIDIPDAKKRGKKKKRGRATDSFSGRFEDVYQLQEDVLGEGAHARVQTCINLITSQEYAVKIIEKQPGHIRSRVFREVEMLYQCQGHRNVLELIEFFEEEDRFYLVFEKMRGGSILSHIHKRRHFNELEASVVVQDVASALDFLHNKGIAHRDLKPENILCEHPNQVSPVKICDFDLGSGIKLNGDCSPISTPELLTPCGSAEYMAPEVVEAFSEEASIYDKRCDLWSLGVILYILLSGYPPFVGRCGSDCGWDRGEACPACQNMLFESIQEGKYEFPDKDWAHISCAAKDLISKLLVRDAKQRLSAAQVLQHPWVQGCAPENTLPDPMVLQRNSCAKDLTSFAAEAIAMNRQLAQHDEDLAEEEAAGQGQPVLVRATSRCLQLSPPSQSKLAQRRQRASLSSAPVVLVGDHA
# protocol.notes: MNK2 biochemical IC50 assay (Caliper Mobility Shift Assay)
# test.settings: read-out: P(IC50) MNK2 (converted)
measured.metric: IC50 (µM)

# compound, units.symbol, experimental.result
records = [
    ("O=C(NCC1CCNCC1)c1nc2c(N3c4ccccc4C[C@H]3CO)ncnc2s1", "µM", 0.126),
    ("CN(C)CCCNC(=O)c1nc2c(Nc3ccc(F)cc3OC3CCCC3)ncnc2s1", "µM", 0.0631),
    ("NCCC1CN(c2ncnc3sc(C(=O)NC4CCOCC4)nc23)c2ccccc21 (stereo not shown)", "µM", 0.00631),
    ("CC1CN(c2ncnc3sc(C(=O)NC4CCOCC4)nc23)c2ccccc21 (stereo not shown)", "µM", 0.00398),
]

Value source: patent US10669284B2
